As shown below, each of these compounds has a reported IC50 value.
- Assayed target: human P2X3 receptor (Homo sapiens (Human))
- Sequence (P56373 whole entry): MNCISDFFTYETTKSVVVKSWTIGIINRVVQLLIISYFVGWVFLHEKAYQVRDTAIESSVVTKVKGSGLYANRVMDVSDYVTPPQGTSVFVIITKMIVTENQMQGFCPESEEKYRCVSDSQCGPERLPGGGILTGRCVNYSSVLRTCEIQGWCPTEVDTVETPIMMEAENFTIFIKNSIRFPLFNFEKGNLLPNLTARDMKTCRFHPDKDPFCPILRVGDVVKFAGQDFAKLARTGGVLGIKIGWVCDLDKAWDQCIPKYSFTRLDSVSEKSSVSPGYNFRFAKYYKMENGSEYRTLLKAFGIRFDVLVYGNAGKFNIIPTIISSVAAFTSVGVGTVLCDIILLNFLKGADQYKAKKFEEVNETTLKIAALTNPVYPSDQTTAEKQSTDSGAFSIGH
- Assay: Evaluation of human P2X3 receptor inhibitory activity (Test Example 1)
- Condition notes: C6BU-1 cell transfected with human P2X3 receptor gene, FLIPR 384
Kindly provide the numeric value in nM only, without the unit symbol.

For orientation, consider the following solved cases.
// query Using the record for COC(=O)[C@@H](C)Cn1c(=O)[nH]/c(=N\c2ccc(Oc3ccncc3)cc2)n(Cc2ccc(Cl)cc2)c1=O [Compound R-206] , report its IC50.
// result 5

// query Using the record for C[C@H](Cn1c(=O)[nH]/c(=N\c2ccc(Oc3ccccn3)cc2)n(Cc2ccc(Cl)cc2)c1=O)C(=O)O [Compound I-141] , report its IC50.
// result 14

// query Using the record for CC(C)(Cn1c(=O)[nH]/c(=N\c2ccc(Oc3cnc(C(F)(F)F)cn3)cc2)n(Cc2ccc(Cl)cc2)c1=O)C(=O)O [Compound R-176] , report its IC50.
// result 7

// query Using the record for COC(=O)C(C)(C)Cn1c(=O)[nH]/c(=N\c2ccc(Oc3cnccn3)c(F)c2)n(Cc2ccc(Cl)cc2)c1=O [Compound R-049] , report its IC50.
// result 8

// query Using the record for CC(C)(Cn1c(=O)[nH]/c(=N\c2ccc(Oc3ccnc(Cl)c3)cc2)n(Cc2ccc(Cl)cc2)c1=O)C(=O)O [Compound R-089] , report its IC50.
// result 7

Further cases:
// query Using the record for Cc1cnc(Oc2ccc(/N=c3\[nH]c(=O)n(C[C@H](C)C(=O)O)c(=O)n3Cc3ccc(Cl)cc3)cc2)s1 [Compound R-133] , report its IC50.
// result 6

Source: patent US10065941B2
